Consider the following molecules; for each one, report its relative viability.
Tested on: COR-L23
Assay: relative viability (nuclei count vs DMSO), 5 days (fraction); higher = more cells survive
Details: first compound 0.253 µM
Give bare numbers.

molecule	relative viability
Oc1nc(-c2ccc(C(F)(F)F)cc2)nc2c1CSCC2 [XAV939] + CC(=O)c1c(C)c2cnc(Nc3ccc(N4CCNCC4)cn3)nc2n(C2CCCC2)c1=O [Palbociclib] (partner 0.5 µM)	0.261
Oc1nc(-c2ccc(C(F)(F)F)cc2)nc2c1CSCC2 [XAV939] + Nc1ncn([C@H]2C[C@H](O)[C@@H](CO)O2)c(=O)n1 [Decitabine] (partner 2 µM)	0.414
Oc1nc(-c2ccc(C(F)(F)F)cc2)nc2c1CSCC2 [XAV939] + O=C(CCCCCCC(=O)Nc1ccccc1)NO [Vorinostat] (partner 1 µM)	0.472
Oc1nc(-c2ccc(C(F)(F)F)cc2)nc2c1CSCC2 [XAV939] + CS(=O)(=O)N1CCN(Cc2cc3nc(-c4cccc5[nH]ncc45)nc(N4CCOCC4)c3s2)CC1 [Pictilisib] (partner 1 µM)	0.768

Could you now look at the following molecule, please?
# return relative viability for C=C1C(=O)O[C@@H](CCCCCCCC)[C@@H]1C(=O)O [C-75] + Nc1ncn([C@H]2C[C@H](O)[C@@H](CO)O2)c(=O)n1 [Decitabine] (partner 2 µM) , test system: COR-L23
0.486

###

Test system: NCI-H1437
Test: relative viability (nuclei count vs DMSO), 5 days (fraction); higher = more cells survive
Conditions: first compound 0.1 µM
measured quantity: relative viability

Here's what some known entries look like.
molecule	relative viability
NC(=O)Nc1cc(-c2cccc(F)c2)sc1C(=O)N[C@H]1CCCNC1 [AZD7762] + CS(=O)(=O)CCNCc1ccc(-c2ccc3ncnc(Nc4ccc(OCc5cccc(F)c5)c(Cl)c4)c3c2)o1 [Lapatinib] (partner 2 µM)	0.875
NC(=O)Nc1cc(-c2cccc(F)c2)sc1C(=O)N[C@H]1CCCNC1 [AZD7762] + Nc1ncn([C@H]2C[C@H](O)[C@@H](CO)O2)c(=O)n1 [Decitabine] (partner 2 µM)	0.721
NC(=O)Nc1cc(-c2cccc(F)c2)sc1C(=O)N[C@H]1CCCNC1 [AZD7762] + CC(=O)Nc1cccc(-n2c(=O)n(C3CC3)c(=O)c3c(Nc4ccc(I)cc4F)n(C)c(=O)c(C)c32)c1 [Trametinib] (partner 0.02 µM)	0.549

Here is the next item to consider.
Retrieve relative viability measured for NC(=O)Nc1cc(-c2cccc(F)c2)sc1C(=O)N[C@H]1CCCNC1 [AZD7762] + Cc1cc(Nc2cc(N3CCN(C)CC3)nc(Sc3ccc(NC(=O)C4CC4)cc3)n2)n[nH]1 [Tozasertib] (partner 0.1 µM) and print it.
0.439

###

Tested on: NCI-H2405
Assay: relative viability (nuclei count vs DMSO), 5 days (fraction); higher = more cells survive
Conditions: first compound 0.01581 µM
measured quantity: relative viability
One number for each entry.

Examples with answers:
compound	system under test	observed measurement
CC1(C)CCC(c2ccc(Cl)cc2)=C(CN2CCN(c3ccc(C(=O)NS(=O)(=O)c4ccc(N[C@H](CCN5CCOCC5)CSc5ccccc5)c(S(=O)(=O)C(F)(F)F)c4)cc3)CC2)C1 [Navitoclax] + CC(C)C[C@H](NC(=O)[C@H](Cc1ccccc1)NC(=O)c1cnccn1)B(O)O [Bortezomib] (partner 0.002 µM)	NCI-H2405	1.09
CC1(C)CCC(c2ccc(Cl)cc2)=C(CN2CCN(c3ccc(C(=O)NS(=O)(=O)c4ccc(N[C@H](CCN5CCOCC5)CSc5ccccc5)c(S(=O)(=O)C(F)(F)F)c4)cc3)CC2)C1 [Navitoclax] + O=C(CCCCCCC(=O)Nc1ccccc1)NO [Vorinostat] (partner 1 µM)	NCI-H2405	1.09

--- query ---
State, in one line, measured relative viability of CC1(C)CCC(c2ccc(Cl)cc2)=C(CN2CCN(c3ccc(C(=O)NS(=O)(=O)c4ccc(N[C@H](CCN5CCOCC5)CSc5ccccc5)c(S(=O)(=O)C(F)(F)F)c4)cc3)CC2)C1 [Navitoclax] + CC(=O)c1c(C)c2cnc(Nc3ccc(N4CCNCC4)cn3)nc2n(C2CCCC2)c1=O [Palbociclib] (partner 0.5 µM)
0.562

###

Test system: RERF-LC-KJ
Assay: relative viability (nuclei count vs DMSO), 5 days (fraction); higher = more cells survive
Conditions: first compound 0.01581 µM
measured quantity: relative viability
Give bare numbers.

molecule	relative viability
CC1(C)CCC(c2ccc(Cl)cc2)=C(CN2CCN(c3ccc(C(=O)NS(=O)(=O)c4ccc(N[C@H](CCN5CCOCC5)CSc5ccccc5)c(S(=O)(=O)C(F)(F)F)c4)cc3)CC2)C1 [Navitoclax] + Nc1nc2[nH]cc(CCc3ccc(C(=O)N[C@@H](CCC(=O)O)C(=O)O)cc3)c2c(=O)[nH]1 [Pemetrexed] (partner 0.2 µM)	0.38
CC1(C)CCC(c2ccc(Cl)cc2)=C(CN2CCN(c3ccc(C(=O)NS(=O)(=O)c4ccc(N[C@H](CCN5CCOCC5)CSc5ccccc5)c(S(=O)(=O)C(F)(F)F)c4)cc3)CC2)C1 [Navitoclax] + CCNC(=O)c1noc(-c2cc(C(C)C)c(O)cc2O)c1-c1ccc(CN2CCOCC2)cc1 [Luminespib] (partner 0.01 µM)	1.23

Can you give me relative viability for all of these, one by one?
1. CC1(C)CCC(c2ccc(Cl)cc2)=C(CN2CCN(c3ccc(C(=O)NS(=O)(=O)c4ccc(N[C@H](CCN5CCOCC5)CSc5ccccc5)c(S(=O)(=O)C(F)(F)F)c4)cc3)CC2)C1 [Navitoclax] + NC(=O)Nc1cc(-c2cccc(F)c2)sc1C(=O)N[C@H]1CCCNC1 [AZD7762] (partner 0.2 µM)
2. CC1(C)CCC(c2ccc(Cl)cc2)=C(CN2CCN(c3ccc(C(=O)NS(=O)(=O)c4ccc(N[C@H](CCN5CCOCC5)CSc5ccccc5)c(S(=O)(=O)C(F)(F)F)c4)cc3)CC2)C1 [Navitoclax] + Cc1cc(Nc2cc(N3CCN(C)CC3)nc(Sc3ccc(NC(=O)C4CC4)cc3)n2)n[nH]1 [Tozasertib] (partner 0.1 µM)

[1.08, 0.369]

###

System: EKVX
Assay: relative viability (nuclei count vs DMSO), 5 days (fraction); higher = more cells survive
Details: first compound 0.1581 µM
measured quantity: relative viability
One number for each entry.

Kindly give each listed record's relative viability.
1. CC1(C)CCC(c2ccc(Cl)cc2)=C(CN2CCN(c3ccc(C(=O)NS(=O)(=O)c4ccc(N[C@H](CCN5CCOCC5)CSc5ccccc5)c(S(=O)(=O)C(F)(F)F)c4)cc3)CC2)C1 [Navitoclax] + O=C(CCCCCCC(=O)Nc1ccccc1)NO [Vorinostat] (partner 1 µM)
2. CC1(C)CCC(c2ccc(Cl)cc2)=C(CN2CCN(c3ccc(C(=O)NS(=O)(=O)c4ccc(N[C@H](CCN5CCOCC5)CSc5ccccc5)c(S(=O)(=O)C(F)(F)F)c4)cc3)CC2)C1 [Navitoclax] + CC(=O)c1c(C)c2cnc(Nc3ccc(N4CCNCC4)cn3)nc2n(C2CCCC2)c1=O [Palbociclib] (partner 0.5 µM)
3. CC1(C)CCC(c2ccc(Cl)cc2)=C(CN2CCN(c3ccc(C(=O)NS(=O)(=O)c4ccc(N[C@H](CCN5CCOCC5)CSc5ccccc5)c(S(=O)(=O)C(F)(F)F)c4)cc3)CC2)C1 [Navitoclax] + CC(C)C[C@H](NC(=O)[C@H](Cc1ccccc1)NC(=O)c1cnccn1)B(O)O [Bortezomib] (partner 0.002 µM)

0.711
0.403
1.04

###

Tested on: NCI-H1666
Experiment: relative viability (nuclei count vs DMSO), 5 days (fraction); higher = more cells survive
Conditions: first compound 1.265 µM
Assignment: determine reported relative viability for the given compounds.
Answers are plain numbers.

Answered examples (3):
compound	system under test	measured quantity	observed measurement
O=C(O)c1ccc(-c2c[nH]c3ncc(-c4ccccc4)cc23)cc1C1CCCC1 + Cc1cc(Nc2cc(N3CCN(C)CC3)nc(Sc3ccc(NC(=O)C4CC4)cc3)n2)n[nH]1 [Tozasertib] (partner 0.1 µM)	NCI-H1666	relative viability	0.419
O=C(O)c1ccc(-c2c[nH]c3ncc(-c4ccccc4)cc23)cc1C1CCCC1 + Nc1ncn([C@H]2C[C@H](O)[C@@H](CO)O2)c(=O)n1 [Decitabine] (partner 2 µM)	NCI-H1666	relative viability	0.613
O=C(O)c1ccc(-c2c[nH]c3ncc(-c4ccccc4)cc23)cc1C1CCCC1 + CC1(C)CCC(c2ccc(Cl)cc2)=C(CN2CCN(c3ccc(C(=O)NS(=O)(=O)c4ccc(N[C@H](CCN5CCOCC5)CSc5ccccc5)c(S(=O)(=O)C(F)(F)F)c4)cc3)CC2)C1 [Navitoclax] (partner 0.5 µM)	NCI-H1666	relative viability	0.584

Here is the next item to consider.
Answer with the recorded relative viability for the compound listed here: O=C(O)c1ccc(-c2c[nH]c3ncc(-c4ccccc4)cc23)cc1C1CCCC1 + O=C(c1cc(Cc2n[nH]c(=O)c3ccccc23)ccc1F)N1CCN(C(=O)C2CC2)CC1 [Olaparib] (partner 8 µM)
0.678
